- target.or.system: Aβ42 (Homo sapiens)
- Sequence (P05067 672-713): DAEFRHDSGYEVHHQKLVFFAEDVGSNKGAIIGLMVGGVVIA
- procedure.text: Th-T (thioflavin-T) assay of Aβ42 aggregation
- Assay type: biochemical
- run.conditions: concentration 10, unit not given; time-course reading M135
Classify as follows. Reported Th-T fluorescence of Aβ42 with compound, mean of three wells (Fig. 7a source data) greater than or equal to 2: Condition met. Reported Th-T fluorescence of Aβ42 with compound, mean of three wells (Fig. 7a source data) below: Condition not met.

compound=C=C1CC[C@@H]2[C@](C)(CC[C@H]3O[C@H](C=C(C)C)C[C@@]23C)[C@@H]1Cc1c(OC)oc(CO)c(C(=O)OC)c1=O class_name="Condition not met"
compound="C=C1CCC2C(C)(CCC=C(C)C)C(O)CCC2(C)C1Cc1c(OC)oc(CO)c(C(=O)OC)c1=O (centres unmarked)" class_name="Condition not met"
compound=C=C1CC[C@@H]2[C@](C)(CC[C@H]3O[C@H](C=C(C)C)C[C@@]23C)[C@@H]1Cc1c(OC)oc(CO)c(C)c1=O class_name="Condition met"
compound="C=C1CCC2C(C)(CCC=C(C)C)C(O)CCC2(C)C1Cc1c(OC)oc(C)c(C(=O)OC)c1=O (centres unmarked)" class_name="Condition met"
compound="C=C1CCC2C(C)(CCC=C(C)C)C(O)CCC2(C)C1Cc1c(OC)oc(CO)c(C)c1=O (centres unmarked)" class_name="Condition met"
